Entry source: PubChem BioAssay (NCI)

Below, each of the compounds is paired with its reported growth value.
# System: TK-10 renal
# assay explanation: NCI-60 one-dose screen, 48 h (100 = growth as untreated, 0 = no growth, -100 = all killed)
# test context: 10 µM unless noted
About 83,000 compounds went through this panel and 20% of them were active in at least one assay; those are over-represented in the sample as a whole.
Report as a plain number; the unit % is understood.

Guide cases for growth, answers given:
> print(dat)
                                   compound  unit.spec  value
1                  COc1cc(C(N)=O)cc(OC)c1OC          %    111
2  O=C(Cc1nc2ccc([N+](=O)[O-])cc2nc1CC(=O)c1cccnc1)c1cccnc1          %   75.5
3                    Cc1nc2c(ccc3ccccc32)s1          %    119
4  CC(=O)c1ccc(N=C(C#N)C2=C(O)c3ccccc3C2=O)cc1          %    129
5                          OCc1cccc2ccccc12          %    100
6  c1csc(-c2cc(-c3cc(-c4cccs4)[nH]n3)n[nH]2)c1          %    162

Req: Provide value of growth for this record tested with TK-10 renal: Cc1ccc(C(O)C2CC2)cc1 (configuration not stated)
Resp: 116

Req: Provide value of growth for this record tested with TK-10 renal: `C#CCSc1nnnn1-c1ccc(Br)c(C)c1`
Resp: 111

Req: Provide value of growth for this record tested with TK-10 renal: `O=C1N(C[P+](c2ccccc2)(c2ccccc2)c2ccccc2)CCCN1C[P+](c1ccccc1)(c1ccccc1)c1ccccc1`
Resp: 106

Req: Provide value of growth for this record tested with TK-10 renal: `O=C1c2ccccc2C(=O)N1OCc1ccccc1`
Resp: 133

Req: Provide value of growth for this record tested with TK-10 renal: `O/N=C/c1ccc(O)cc1O`
Resp: 102

Req: Provide value of growth for this record tested with TK-10 renal: `CC(=O)Nc1cccc(NC(C)=O)n1`
Resp: 111

Req: Provide value of growth for this record tested with TK-10 renal: CCC(C)(C)C1CCC(O)CC1 (configuration not stated)
Resp: 98.7

Req: Provide value of growth for this record tested with TK-10 renal: `CCCCNC1(C#N)CCN(Cc2ccccc2)CC1`
Resp: 105

Req: Provide value of growth for this record tested with TK-10 renal: `CCCCOC(OCCCC)c1ccccc1`
Resp: 107

Req: Provide value of growth for this record tested with TK-10 renal: `Cc1cc2nc(CC(=O)c3ccccc3)c(=O)[nH]c2cc1C`
Resp: 149

Req: Provide value of growth for this record tested with TK-10 renal: `CCOc1ccc(Br)cc1/C=N\N=C\c1cc(Br)ccc1OCC`
Resp: 111
